These entries and their values trace back to patent US20250073165A1.

test: PSD of bulk API compared to PSD of API in vial after dry heat sterilization; assay type: physicochemical; conditions: Table 3; bulk API or API in vial after dry heat sterilization 150-160° C., two hours, per sample name
Assign labels as follows, please: fulfilled for D(90) below 20 μm; not fulfilled for D(90) equal to or exceeding 20 μm.

compound="Cc1cc2c(s1)Nc1ccccc1N=C2N1CCN(C)CC1 [Batch S3-020]" category_label=fulfilled
compound="Cc1cc2c(s1)Nc1ccccc1N=C2N1CCN(C)CC1 [Batch M6-020]" category_label="not fulfilled"
compound="Cc1cc2c(s1)Nc1ccccc1N=C2N1CCN(C)CC1 [Batch S1-920]" category_label=fulfilled
compound="Cc1cc2c(s1)Nc1ccccc1N=C2N1CCN(C)CC1 [Batch M2-121]" category_label="not fulfilled"
compound="Cc1cc2c(s1)Nc1ccccc1N=C2N1CCN(C)CC1 [Batch S1-220]" category_label="not fulfilled"

Here's the next entry for you.
# strict comparison: is reported D(90) < 20 μm? input = Cc1cc2c(s1)Nc1ccccc1N=C2N1CCN(C)CC1 [Batch M1-010]
fulfilled
